# tested on: Inhibitor of nuclear factor kappa-B kinase subunit beta (Homo sapiens)
# experimental protocol: Inhibition of human recombinant GST tagged IKK2 expressed in baculovirus using Ser/Thr05 peptide as substrate after 60 mins by Z-LYTE assay
property measured: IC50 (nM)

Lookup: Given the entry CNc1nc2ccc(C)cc2n2c(C)cnc12 , report its measured IC50.
Found: 773

(P) CNc1nc2ccc(C)cc2n2c(Br)cnc12
(Q) CNc1nc2ccc(C)cc2n2ccnc12
Lookup: Lab note: check whether P or Q shows the higher recorded IC50. // return label of chosen record
Found: Q
(Q: 579 nM, P: 324 nM)

* * *

# tested on: Inhibitor of nuclear factor kappa-B kinase subunit beta (Homo sapiens)
# Sequence (whole entry): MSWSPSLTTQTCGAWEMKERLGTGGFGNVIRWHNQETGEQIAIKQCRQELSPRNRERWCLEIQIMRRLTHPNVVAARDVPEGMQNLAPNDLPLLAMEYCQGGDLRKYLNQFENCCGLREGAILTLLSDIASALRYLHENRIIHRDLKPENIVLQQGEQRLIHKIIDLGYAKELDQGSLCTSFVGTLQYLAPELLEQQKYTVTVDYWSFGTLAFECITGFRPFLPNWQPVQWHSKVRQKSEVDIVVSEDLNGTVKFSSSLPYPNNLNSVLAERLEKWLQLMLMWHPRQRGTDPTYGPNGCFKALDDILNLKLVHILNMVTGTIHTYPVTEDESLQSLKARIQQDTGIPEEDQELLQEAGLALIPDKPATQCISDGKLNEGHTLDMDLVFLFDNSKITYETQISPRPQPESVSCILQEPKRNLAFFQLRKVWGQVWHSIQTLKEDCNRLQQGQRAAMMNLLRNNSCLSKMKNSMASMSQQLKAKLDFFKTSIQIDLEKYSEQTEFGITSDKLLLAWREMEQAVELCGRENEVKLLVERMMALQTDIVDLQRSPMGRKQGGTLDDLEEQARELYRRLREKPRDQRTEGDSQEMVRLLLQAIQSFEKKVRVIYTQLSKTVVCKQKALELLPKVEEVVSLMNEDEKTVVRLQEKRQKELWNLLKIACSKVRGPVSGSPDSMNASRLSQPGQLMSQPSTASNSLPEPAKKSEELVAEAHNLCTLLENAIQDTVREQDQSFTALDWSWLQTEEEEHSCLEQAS
# experimental protocol: Inhibition of human recombinant GST tagged IKK2 expressed in baculovirus using Ser/Thr05 peptide as substrate at 10 uM after 60 mins by Z-LYTE assay
property measured: inhibition

Lookup: Given the entry CNc1nc2ccc(C)cc2n2ccnc12 , report its measured inhibition.
Found: 64%

Lookup: Given the entry Cc1ccc2nc(NCCN)c3ncc(C)n3c2c1 , report its measured inhibition.
Found: 64%

Lookup: Given the entry CNc1nc2ccccc2n2ccnc12 , report its measured inhibition.
Found: 54%

Lookup: Given the entry CNc1nc2cc(C)ccc2n2ccnc12 , report its measured inhibition.
Found: 50%

Lookup: Given the entry CNc1nc2cc(C)ccc2n2c(Br)cnc12 , report its measured inhibition.
Found: 54%

Lookup: Given the entry CNc1nc2ccc(C)cc2n2c(-c3cccc(OC)c3)cnc12 , report its measured inhibition.
Found: 3%

Lookup: Given the entry CNc1nc2ccc(C)cc2n2c(C)cnc12 , report its measured inhibition.
Found: 65%

* * *

# tested on: Inhibitor of nuclear factor kappa-B kinase subunit alpha (Homo sapiens) (UniProt O15111)
# Sequence (whole entry): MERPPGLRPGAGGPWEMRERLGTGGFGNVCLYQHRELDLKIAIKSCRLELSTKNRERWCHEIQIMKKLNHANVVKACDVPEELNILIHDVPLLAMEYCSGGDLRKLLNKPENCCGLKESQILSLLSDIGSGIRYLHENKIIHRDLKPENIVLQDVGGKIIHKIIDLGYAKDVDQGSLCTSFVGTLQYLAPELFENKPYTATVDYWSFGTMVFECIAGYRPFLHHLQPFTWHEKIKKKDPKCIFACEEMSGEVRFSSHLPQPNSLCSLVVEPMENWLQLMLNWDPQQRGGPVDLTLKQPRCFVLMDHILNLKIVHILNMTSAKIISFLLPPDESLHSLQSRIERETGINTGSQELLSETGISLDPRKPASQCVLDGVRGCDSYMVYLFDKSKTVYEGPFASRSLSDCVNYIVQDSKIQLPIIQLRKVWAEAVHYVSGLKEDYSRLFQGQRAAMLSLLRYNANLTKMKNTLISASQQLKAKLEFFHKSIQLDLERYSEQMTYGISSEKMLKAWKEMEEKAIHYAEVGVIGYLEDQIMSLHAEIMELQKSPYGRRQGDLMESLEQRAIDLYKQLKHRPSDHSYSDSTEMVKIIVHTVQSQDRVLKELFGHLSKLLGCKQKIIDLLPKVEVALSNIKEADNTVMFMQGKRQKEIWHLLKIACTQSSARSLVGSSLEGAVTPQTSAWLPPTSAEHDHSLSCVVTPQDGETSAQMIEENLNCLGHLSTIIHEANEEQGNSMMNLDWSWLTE
# experimental protocol: Inhibition of human recombinant His tagged IKK1 expressed in baculovirus at 10 uM after 60 mins by Adapta assay
property measured: inhibition (%)

Worked set:
Lookup: Given the entry CNc1nc2ccccc2n2c(-c3cccc(OC)c3)cnc12 , report its measured inhibition.
Found: 13

Lookup: Given the entry CNc1nc2cc(C)ccc2n2c(-c3cccc(OC)c3)cnc12 , report its measured inhibition.
Found: 7

Lookup: Given the entry CNc1nc2ccc(C)cc2n2c(-c3cccc(OC)c3)cnc12 , report its measured inhibition.
Found: 3

Lookup: Given the entry CNc1nc2cc(C)ccc2n2ccnc12 , report its measured inhibition.
Found: 9

Lookup: Given the entry CNc1nc2ccccc2n2ccnc12 , report its measured inhibition.
Found: 7

(1) CNc1nc2cc(C)ccc2n2c(Br)cnc12
(2) CNc1nc2ccc(C)cc2n2c(C)cnc12
Lookup: Decide: 1 or 2 , by lowest recorded inhibition. // return label of chosen record
Found: 2
(2: 1%, 1: 26%)

(I) CNc1nc2ccccc2n2c(C)cnc12
(II) CNc1nc2ccccc2n2c(Br)cnc12
Lookup: Decide: I or II , by lowest recorded inhibition. // return label of chosen record
Found: I
(I: 7%, II: 23%)

(P) CNc1nc2ccc(C)cc2n2ccnc12
(Q) CNc1nc2cc(C)ccc2n2c(C)cnc12
(R) CNc1nc2ccc(C)cc2n2c(Br)cnc12
Lookup: Ordering: ascending inhibition. Respond with an ordered listing of the labels, as requested.
Found: P, R, Q

* * *

# tested on: Inhibitor of nuclear factor kappa-B kinase subunit beta (Homo sapiens) (UniProt O14920)
# experimental protocol: Inhibition of human recombinant GST tagged IKK2 expressed in baculovirus using Ser/Thr05 peptide as substrate at 10 uM after 60 mins by Z-LYTE assay
Below, each of the compounds is paired with its reported inhibition value.

Lookup: Given the entry CNc1nc2cc(C)ccc2n2c(C)cnc12 , report its measured inhibition.
Found: 57%

Lookup: Given the entry CNc1nc2ccccc2n2c(-c3cccc(OC)c3)cnc12 , report its measured inhibition.
Found: 2%

Lookup: Given the entry CNc1nc2ccccc2n2c(Br)cnc12 , report its measured inhibition.
Found: 60%

Lookup: Given the entry CNc1nc2ccc(C)cc2n2c(Br)cnc12 , report its measured inhibition.
Found: 72%

Read the next record carefully.
Lookup: Given the entry CNc1nc2ccccc2n2c(C)cnc12 , report its measured inhibition.
Found: 61%

Data provenance is ChEMBL document CHEMBL3785011.
